Measured values drawn from patent US20250281457A1 for this set.

- runDescription: Effect of food on plasma pharmacokinetics after single oral dose of SF2a/b (Example 2)
- Type: in vivo, human
- protocolConditions: both sexes, human, plasma, oral, 200 mg, Treatment G: single 200 mg (SF2b), fed, standardized breakfast; read-out: AUClast, Geo. Mean
measuredAttribute: AUC(0-t)

Look up AUC(0-t) for this molecule: COc1cc(NC(C(=O)c2c[nH]c3ccc(OC(F)(F)F)cc23)c2ccc(Cl)cc2OC)cc(S(C)(=O)=O)c1 (stereo not shown)
97200 ng·h/mL

====

- runDescription: Effect of food on plasma pharmacokinetics after single oral dose of SF2a/b (Example 2)
- Assay type: in vivo, human
- protocolConditions: both sexes, human, plasma, oral, 50 mg, Treatment H: single 50 mg (SF2a), fasted; read-out: AUClast, Mean
measuredAttribute: AUC(0-t) (ng·h/mL)
Give a bare numeral; the unit ng·h/mL is implied.

Look up AUC(0-t) for this compound: COc1cc(NC(C(=O)c2c[nH]c3ccc(OC(F)(F)F)cc23)c2ccc(Cl)cc2OC)cc(S(C)(=O)=O)c1 (stereo not shown)
19900

====

- runDescription: Effect of food on plasma pharmacokinetics after single oral dose of SF2a/b (Example 2)
- Type: in vivo, human
- protocolConditions: both sexes, human, plasma, oral, 50 mg, Treatment I: single 50 mg (SF2a), fed, standardized breakfast; read-out: tmax, Median
measuredAttribute: Tmax
Kindly report the value followed by its unit.

Look up Tmax for this compound: COc1cc(NC(C(=O)c2c[nH]c3ccc(OC(F)(F)F)cc23)c2ccc(Cl)cc2OC)cc(S(C)(=O)=O)c1 (stereo not shown)
6.5 h

====

- runDescription: Plasma pharmacokinetics with loading dose and weekly or twice weekly maintenance dosing, fed (Example 5)
- Type: in vivo, human
- protocolConditions: human, plasma, oral, 450 mg, Panel I (450 mg BID Days 1-2, then 900 mg Q7D; SF2a/b, fed), Day 1; read-out: Median tmax (min-max)
measuredAttribute: Tmax (h)
Give a bare numeral; the unit h is implied.

Look up Tmax for this compound: COc1cc(NC(C(=O)c2c[nH]c3ccc(OC(F)(F)F)cc23)c2ccc(Cl)cc2OC)cc(S(C)(=O)=O)c1 (stereo not shown)
7.5

====

- runDescription: Effect of food on plasma pharmacokinetics after single oral dose of SF2a/b (Example 2)
- Format: in vivo, human
- protocolConditions: both sexes, human, plasma, oral, 200 mg, Treatment G: single 200 mg (SF2b), fed, standardized breakfast; read-out: AUClast, Median
measuredAttribute: AUC(0-t)
Kindly report the value followed by its unit.

Look up AUC(0-t) for this molecule: COc1cc(NC(C(=O)c2c[nH]c3ccc(OC(F)(F)F)cc23)c2ccc(Cl)cc2OC)cc(S(C)(=O)=O)c1 (stereo not shown)
89500 ng·h/mL

====

- runDescription: Effect of food on plasma pharmacokinetics after single oral dose of SF2a/b (Example 2)
- Assay type: in vivo, human
- protocolConditions: both sexes, human, plasma, oral, 800 mg, 800 mg SF2b, standardized breakfast; linear mixed effects model (Table 5A); read-out: Cmax, Geometric Mean Treatment E
measuredAttribute: Cmax (ng/mL)
Give a bare numeral; the unit ng/mL is implied.

Look up Cmax for this compound: COc1cc(NC(C(=O)c2c[nH]c3ccc(OC(F)(F)F)cc23)c2ccc(Cl)cc2OC)cc(S(C)(=O)=O)c1 (stereo not shown) [Compound (a)]
3380
